B1: HDV Ribozyme (parent)
chain: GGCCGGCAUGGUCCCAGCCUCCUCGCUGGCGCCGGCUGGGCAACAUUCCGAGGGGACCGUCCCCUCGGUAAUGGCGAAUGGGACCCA

Variants of: B1
Test: self-cleavage, relative activity (ratio to wild type); higher = more cleavage; co-transcriptional
Response key: rule met means self-cleavage >= 0.3; rule not met means self-cleavage < 0.3.

# Seq Text, Assigned Category
rows = [
    ("GGCCGGCAUGGUCCGAGCCUCGUCGCUGGCGCCGGCUGGGCAACAUUCCGAGGGGACCGUCCCCUCGGUAAUGGCGAAUGGGACCCA [C15G C22G]", "rule not met"),
]

Q: # check: self-cleavage of GGCCGGCAUGGUCCCAGCCUCCUCUCUGGCGCCGGCUGGGCAACAUUCCGAGGGGACCGUCCCCUCGGUAAUUGCGAAUGGGACCCA [G25U G73U] is greater than or equal to 0.3
A: rule not met

Q: Can you handle GGCCGGCAUGGUCCCAGCCUCCUCGCUGGCGCCUGCUGGGCAACAUUCCGAGGGGACCGUCCCCUCGGUAAUAGCGAAUGGGACCCA [G34U G73A] next?
A: rule not met

Q: Do the same for GGCCGGCAUGGUCCCAGCCUCCUCGGUGGCGCCGGCUGGGCAACAUUCCGAGGGGACCGUCCCCUCGGUAAUGGCGACUGGGACCCA [C26G A78C] please
A: rule not met

Q: How about GGCCGGCAUGGUCCCAGCCUCCUCGCUGGCGCCGGCUGGGCAGCAUUCCGAGGGUACCGUCCCCUCGGUAAUGGCGAAUGGGACCCA [A43G G55U] ?
A: rule met

Origin of values: the RNAGym collection of RNA variant scans (doi:10.7554/elife.80360)
